test system: SUIT-2 (Pancreatic Carcinoma); assay: combination Emax (second highest fraction inhibited in the dose matrix, 72 h); higher = more inhibition; extreme values may be limits of the assay
Recorded endpoint: combination Emax
No unit in the answer, please; the number alone is enough.

1. CC(=O)c1c(C)c2cnc(Nc3ccc(N4CCNCC4)cn3)nc2n(C2CCCC2)c1=O [Palbociclib] + CN(CC[C@H](CSC1=CC=CC=C1)NC2=C(C=C(C=C2)S(=O)(=O)NC(=O)C3=CC=C(C=C3)N4CCC(CC4)[C@H](C5=CC=CC=C5C6=CC=C(C=C6)Cl)O)S(=O)(=O)C(F)(F)F)CCO [AZD4320] (first compound max 10 µM, 7x7, partner max 1 µM)    0.354

**Query** Query (molecule): Cc1cc2ncnn2cc1Nc1ncc2c(n1)n(C1CCOCC1)c(=O)n2C [AZD7648] + O=C(c1cc(Cc2n[nH]c(=O)c3ccccc23)ccc1F)N1CCN(C(=O)C2CC2)CC1 [Olaparib] (first compound max 10 µM, 7x7, partner max 10 µM) ; field requested: combination Emax
**Result** 0.205

###

Below, each entry is listed with its recorded Bliss excess.
test system: DB (B-Cell Non-Hodgkin's Lymphoma); experiment: Bliss excess, mean over the matrix (fraction); higher = more synergy
No unit in the answer, please; the number alone is enough.

// below: answered compounds
1. COc1nnc2ccc(N3CCC(c4ccc(OCCN5CCN(C)C(=O)[C@H]5C)cc4)CC3)nn12 [AZD5153] + CC1(C)CCC(CN2CCN(c3ccc(C(=O)NS(=O)(=O)c4ccc(NCC5CCOCC5)c([N+](=O)[O-])c4)c(Oc4cnc5[nH]ccc5c4)c3)CC2)=C(c2ccc(Cl)cc2)C1 [Venetoclax] (first compound max 1 µM, 7x7, partner max 1 µM)    -0.0114
2. Cc1c2c(nn1C)CSCc1cc(n(C)n1)CSc1cc(c3ccccc3c1)OCCCc1c(C(=O)O)n(C)c3c-2c(Cl)ccc13 [AZD5991] + CN(C)CCCOc1ccc(-c2ccc3ncc4c(c3c2)n(C2CCOCC2)c(=O)n4C)cn1 [AZD0156] (first compound max 1 µM, 7x7, partner max 1 µM)    -0.0093
3. Cc1c2c(nn1C)CSCc1cc(n(C)n1)CSc1cc(c3ccccc3c1)OCCCc1c(C(=O)O)n(C)c3c-2c(Cl)ccc13 [AZD5991] + CCN(CCO)CCCOc1ccc2c(Nc3cc(CC(=O)Nc4cccc(F)c4)[nH]n3)ncnc2c1 [AZD2811] (first compound max 1 µM, 7x7, partner max 1 µM)    0.0711
4. Cc1cc2ncnn2cc1Nc1ncc2c(n1)n(C1CCOCC1)c(=O)n2C [AZD7648] + C[C@@H]1COCCN1C2=NC(=NC(=C2)C3(CC3)[S@](=N)(=O)C)C4=C5C=CNC5=NC=C4 [AZD6738] (first compound max 10 µM, 7x7, partner max 10 µM)    -0.0509

**Query** Query (compound): CC(=O)Nc1cccc(-n2c(=O)n(C3CC3)c(=O)c3c(Nc4ccc(I)cc4F)n(C)c(=O)c(C)c32)c1 [Trametinib] + Cc1nc(-c2cn3c(n2)-c2ccc(-c4cnn(C(C)(C)C(N)=O)c4)cc2OCC3)n(C(C)C)n1 [Taselisib] (first compound max 1 µM, 7x7, partner max 10 µM) ; field requested: Bliss excess
**Result** -0.004

###

test system: SK-N-FI (Neuroblastoma); test: combination Emax (second highest fraction inhibited in the dose matrix, 72 h); higher = more inhibition; extreme values may be limits of the assay
Lab note: compare combination Emax against 0.4. Equal or greater, write condition met. Smaller, write condition not met.

Illustrative cases are given below, each with its answer.
1. CC1(C)CCC(CN2CCN(c3ccc(C(=O)NS(=O)(=O)c4ccc(NCC5CCOCC5)c([N+](=O)[O-])c4)c(Oc4cnc5[nH]ccc5c4)c3)CC2)=C(c2ccc(Cl)cc2)C1 [Venetoclax] + C[C@@H](Nc1cc(F)cc(F)c1)c1cc(C(=O)N(C)C)cc2c(=O)cc(N3CCOCC3)oc12 [AZD8186] (first compound max 1 µM, 7x7, partner max 3 µM)    condition not met
2. Cc1c2c(nn1C)CSCc1cc(n(C)n1)CSc1cc(c3ccccc3c1)OCCCc1c(C(=O)O)n(C)c3c-2c(Cl)ccc13 [AZD5991] + Cc1cc2ncnn2cc1Nc1ncc2c(n1)n(C1CCOCC1)c(=O)n2C [AZD7648] (first compound max 1 µM, 7x7, partner max 10 µM)    condition met
3. Cc1c2c(nn1C)CSCc1cc(n(C)n1)CSc1cc(c3ccccc3c1)OCCCc1c(C(=O)O)n(C)c3c-2c(Cl)ccc13 [AZD5991] + C[C@@H]1COCCN1C2=NC(=NC(=C2)C3(CC3)[S@](=N)(=O)C)C4=C5C=CNC5=NC=C4 [AZD6738] (first compound max 1 µM, 7x7, partner max 10 µM)    condition met
4. NC1(C(=O)N[C@@H](CCO)c2ccc(Cl)cc2)CCN(c2ncnc3[nH]ccc23)CC1 [Capivasertib] + CC(C)n1c(=O)n(C)c2cnc3cc(F)c(-c4ccc(OCCCN5CCCCC5)nc4)cc3c21 [AZD1390] (first compound max 10 µM, 7x7, partner max 0.3 µM)    condition not met

Next item in the queue.
**Query** Exam item: decide whether the reported combination Emax for CC1(C)CCC(CN2CCN(c3ccc(C(=O)NS(=O)(=O)c4ccc(NCC5CCOCC5)c([N+](=O)[O-])c4)c(Oc4cnc5[nH]ccc5c4)c3)CC2)=C(c2ccc(Cl)cc2)C1 [Venetoclax] + CN(C)CCCOc1ccc(-c2ccc3ncc4c(c3c2)n(C2CCOCC2)c(=O)n4C)cn1 [AZD0156] (first compound max 1 µM, 7x7, partner max 1 µM) is at least 0.4.
**Result** condition not met
